target: HLA-A*0202 (human); assay: competition with 125I-labelled probe peptide for purified HLA, gel filtration
Where no end group is shown, it is not given here. [ ]: non-standard residue; d: D form. Abu = CC[C@H](N)C(=O)O
observationType: pIC50
Here pIC50 is given on a logarithmic scale as minus log10 of the concentration in mol/L.

Recorded pIC50, per entry:
YLIMVK[Abu]WMV (also called YLIMVKBWMV) [Her2/neu.952L2B7V10] ... 7.18
KTFGSLAFV [Her2/neu.369T2V9] ... 7.89
YLIMVKCWMV [Her2/neu.952L2V10] ... 7.25

Look up pIC50: VLIQRNPQV [Her2/neu.153V9]
6.11

Look up pIC50: SLISAVVGV [Her2/neu.653.L2V9]
8.00
